System Name: T1, Hup-WT (histone-like DNA binding protein HU) (Helicobacter pylori, UniProt O25506 1-94)
T1 sequence: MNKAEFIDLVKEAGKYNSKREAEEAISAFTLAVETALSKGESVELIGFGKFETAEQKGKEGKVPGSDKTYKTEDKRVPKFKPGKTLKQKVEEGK
Assay Text: Tyr fluorescence quenching
Test Readout: Kd (nM)
Give your result in nM as a bare value.

Entry under review: TTTTTTTTTTCGAAGAAAAAAAAAA (structured_DNA) [hp-DNA (25-base A/T-rich hairpin)] . Reported Kd? 500
